Test system: c-Abl (mouse);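 further: 11-residue human phosphosite peptides and single-mutation variants displayed on the E. coli surface, counted by deep sequencing, each peptide's frequency after selection divided by its frequency in the unselected input library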;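 further: frequency after pTyr selection over input frequency; kinase dosed for 20-30% of maximal phosphorylation in three min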
TEST: phosphorylation enrichment, bacterial display (enrichment ratio); higher = better substrate or ligand; peptides without Tyr show the background
Entries and their phosphorylation enrichment
READOUT LABEL: phosphorylation enrichment

SEQUENCE CHAIN: EAVSIYQFYGQ [CBLC_Y402_H405Y]
RECORDED VALUE: 4.8
--
SEQUENCE CHAIN: HNVPIYEGYGL [ACTA1_Y168_A172G]
RECORDED VALUE: 3.23
--
SEQUENCE CHAIN: SRDDFYETIAM [NPY1R_Y347_D346Y_YF]
RECORDED VALUE: 0.773
--
SEQUENCE CHAIN: YPPTHYIRRVP [SLC4A11_Y820]
RECORDED VALUE: 0.601
--
SEQUENCE CHAIN: IRTIDYRYTVC [IDS_Y497_W502C]
RECORDED VALUE: 0.65
--
SEQUENCE CHAIN: LTSKPYAFTAQ [NDUFS1_Y236_R241Q]
RECORDED VALUE: 0.521
--
SEQUENCE CHAIN: LNGDRYFKGIV [DCX_Y64_R59L]
RECORDED VALUE: 0.703
--
SEQUENCE CHAIN: KELAPYDENWF [RPS19_Y48]
RECORDED VALUE: 0.597
--
SEQUENCE CHAIN: DGMADCSDPSY [CDC5L_Y459_Y459C]
RECORDED VALUE: 0.755
--
SEQUENCE CHAIN: DAASNYARGHF [TUBA3E_Y103_YF]
RECORDED VALUE: 0.537
--
SEQUENCE CHAIN: SSQHRYSTPHA [RAF1_Y232]
RECORDED VALUE: 0.387
--
SEQUENCE CHAIN: EKEQNYDLTQV [ECD_Y448_E452Q]
RECORDED VALUE: 1.42
--
SEQUENCE CHAIN: SLNEEYTKNKT [MSH2_Y563]
RECORDED VALUE: 0.537
--
SEQUENCE CHAIN: LENQTYFKSFE [AKAP9_Y2482]
RECORDED VALUE: 0.872
--
SEQUENCE CHAIN: PADCRYFTFPQ [GAMT_Y222_A224T_YF]
RECORDED VALUE: 0.944
--
SEQUENCE CHAIN: WKKEIYEESST [MOCS2_Y170]
RECORDED VALUE: 0.83
--
SEQUENCE CHAIN: GEDLSYGDVPP [IRS1_Y151]
RECORDED VALUE: 0.765
--
SEQUENCE CHAIN: PPKFFYTRKLL [CYBB_Y41]
RECORDED VALUE: 0.694
--
SEQUENCE CHAIN: FGPPQYNMQFS [ERBB2IP_Y977_I979M_YF]
RECORDED VALUE: 0.383
--
SEQUENCE CHAIN: GNLQEYLTRHV [TGFBR2_Y336]
RECORDED VALUE: 0.667
--
SEQUENCE CHAIN: SNMPSYSGHFT [GRIN2A_Y1224_T1223S]
RECORDED VALUE: 0.444
--
SEQUENCE CHAIN: KNRDVYSSDFF [USP24_Y2134_YF]
RECORDED VALUE: 0.752
--
SEQUENCE CHAIN: DNEAIYDICRC [TUBA4A_Y210_R215C]
RECORDED VALUE: 10.3
--
SEQUENCE CHAIN: RKTAKYLLKGE [CDH5_Y82_N79T]
RECORDED VALUE: 1.1
--
SEQUENCE CHAIN: NKFTTYLPWLP [C9orf24_Y126_R129W_YF]
RECORDED VALUE: 1.6
--
SEQUENCE CHAIN: DDLEVYLKHLL [SACS_Y3477]
RECORDED VALUE: 0.61
--
SEQUENCE CHAIN: TDTAAYEERVR [SPTB_Y474]
RECORDED VALUE: 1.2
--
SEQUENCE CHAIN: FQVRRYDCDCD [CRYGS_Y21_G18V]
RECORDED VALUE: 0.788
--
SEQUENCE CHAIN: VVEYGYEFFAK [PPP1CB_Y254_D252Y]
RECORDED VALUE: 1.09
